system: Mtb H37Rv; assay: microbe, parasite or virus in culture; type: cell-based, Mycobacterium tuberculosis; settings: Mycobacterium tuberculosis, H37RV; read-out: MIC in 7H9 GCas
So I've got a bunch of compounds here, and I need their MIC values.
Numbers only, in µM.

**Q:** State its MIC: "CC(C)c1nn2c(=O)cc(-c3ccccc3)[nH]c2c1-c1ccccc1"
**A:** 12.5

**Q:** Tell me its MIC given COc1ccc(-c2cc(=O)n3nc(C)c(-c4ccc(F)cc4)c3[nH]2)cc1 [Compound 4, reference compound] as the entry.
**A:** 3.12

**Q:** State its MIC: "Cc1nn2c(=O)cc(Cc3ccccc3)[nH]c2c1-c1ccccc1"
**A:** 3.12

Each compound below has a reported value. Please supply its MIC.
1. Cc1nn2c(=O)cc(-c3ccc(Cl)c(Cl)c3)[nH]c2c1-c1ccc(F)cc1
2. Cc1nn2c(=O)cc(-c3ccc(Cl)c(Cl)c3)[nH]c2c1-c1ccccc1
3. Cc1nn2c(=O)cc(-c3ccc(F)c(F)c3)[nH]c2c1-c1ccc(Cl)cc1

**A:**
1: 3.12; 2: 1.56; 3: 3.12

---

Kindly state MIC for each of the entries shown.
system: Mtb strain H37Rv; assay: MIC against Mtb H37Rv under various media/carbon sources; type: cell-based; conditions: Mycobacterium tuberculosis, read-out: MIC GBSA/DBSA
Give bare numbers, in µM.

**Q:** In one line, give reported MIC of the entry "Cc1nn2c(=O)cc(-c3ccc(F)c(F)c3)[nH]c2c1-c1ccccc1" .
**A:** 3.13

**Q:** Give reported MIC value for NNC(=O)c1ccncc1 [INH, isoniazid, reference compound]
**A:** 0.3

**Q:** Supply MIC value. Item: COc1ccc(-c2cc(=O)n3nc(C)c(-c4ccc(F)cc4)c3[nH]2)cc1 [Compound 4, reference compound]
**A:** 9.4

**Q:** Answer with reported MIC of "Cc1nn2c(=O)cc(-c3ccccc3)[nH]c2c1-c1ccccc1"
**A:** 12.5

New cases:
**Q:** Output MIC of O=c1cc(CC2CCCCC2)[nH]c2c(-c3ccc(Cl)cc3)cnn12 [Compound 2, reference compound]
**A:** 4.7

---

test system: Mtb strain H37Rv; assay: MIC against Mtb H37Rv under various media/carbon sources; assay type: cell-based; conditions: Mycobacterium tuberculosis, GAST/Fe, read-out: MIC GAST
quantity: MIC (µM)
Numbers only, in µM.

**Q:** Provide one value: measured MIC of COc1ccc(-c2cc(=O)n3nc(C)c(-c4ccc(F)cc4)c3[nH]2)cc1 [Compound 4, reference compound]
**A:** 3.13

**Q:** In one line, give reported MIC of the entry Cc1nn2c(=O)cc(-c3ccc(F)c(F)c3)[nH]c2c1-c1ccccc1 [Compound P19] .
**A:** 1.2

**Q:** Recall and state the measured MIC for Cc1nn2c(=O)cc(-c3ccccc3)[nH]c2c1-c1ccccc1 [Compound 1] .
**A:** 2.3

Can you give me MIC for all of these, one by one?
1. NNC(=O)c1ccncc1 [INH, isoniazid, reference compound]
2. O=c1cc(CC2CCCCC2)[nH]c2c(-c3ccc(Cl)cc3)cnn12 [Compound 2, reference compound]

**A:**
1. 0.1
2. 19

---

Kindly supply the reported IC50 values for the records listed here.
test: in vitro; conditions: human, Cytotoxicity (IC50) Galactose, HepG2 cells in DMEM/10% FBS with galactose, 24 h

Look over these answered cases.
**Q:** Given Cc1nn2c(=O)cc(CN3CCOCC3)[nH]c2c1-c1ccccc1 [Compound P10] , respond with its IC50.
**A:** > 100 µM

**Q:** Given CC/C(=C(\c1ccccc1)c1ccc(OCCN(C)C)cc1)c1ccccc1 [Tamoxifen, reference compound] , respond with its IC50.
**A:** 5.93 µM

**Q:** Answer with reported IC50 of Cc1nn2c(=O)cc(-c3ccccc3)[nH]c2c1-c1ccccc1 [Compound 1]
**A:** > 100 µM

**Q:** Let me know recorded IC50 for Cc1nn2c(=O)c(C)c(-c3ccccc3)[nH]c2c1-c1ccccc1 [Compound P6] , thanks.
**A:** > 100 µM

**Q:** For O=c1cc(-c2ccccc2)[nH]c2c(-c3ccccc3)cnn12 [Compound P22] , write its IC50.
**A:** > 100 µM

Here are 6 molecules. What values of IC50 were reported for them?
1. Cc1nn2c(=O)cc(-c3ccc(F)c(F)c3)[nH]c2c1-c1ccc(Cl)cc1 [Compound P25]
2. Cc1nn2c(=O)cc(-c3ccc(Cl)c(Cl)c3)[nH]c2c1-c1ccccc1 [Compound P20]
3. Cc1nn2c(=O)cc(-c3ccccc3)[nH]c2c1C [Compound P21]
4. Cc1nn2c(=O)cc(CC3CCCCC3)[nH]c2c1-c1ccccc1 [Compound P9]
5. Cc1nn2c(=O)cc(Cc3ccccc3)[nH]c2c1-c1ccccc1 [Compound P8]
6. O=c1cc(-c2ccc(F)c(F)c2)[nH]c2c(-c3ccccc3)c(C(F)(F)F)nn12 [Compound P27]

**A:**
1. 52.6 µM
2. 55.7 µM
3. > 100 µM
4. 50.5 µM
5. > 100 µM
6. > 100 µM
